Origin of values: PubChem BioAssay (Tox21)

protocol.summary: qHTS assay to identify small molecule HDAC inhibitors - cell viability counter screen (AID 1259365); further: on the % scale 0 is the no-effect control and ±100 the full control effect; nearly all actives have a fitted effect of over 50% in size
test.settings: HCT-116 viability, CellTiter-Glo ATP luminescence, 2 h; series mostly up to 92.4 µM
Active and inactive are the calls of the source. The call rests on the fitted dose curve; in most records, active means well fitted cell-killing curve with a large enough effect in the repeat runs; inconclusive means weak or mixed curves, or effect the other way; inactive means flat fitted curve, though single readings scatter.
readout.kind: activity change, negative = cytotoxicity

[
  {
    "compound": "CC(CCl)OC(C)CCl (configuration not stated)",
    "readout.kind": "activity change, negative = cytotoxicity",
    "reported": "inactive"
  },
  {
    "compound": "CC(C)CCCCCCCOC(=O)c1ccc(C(=O)OCCCCCCCC(C)C)c(C(=O)OCCCCCCCC(C)C)c1",
    "readout.kind": "activity change, negative = cytotoxicity",
    "reported": "inactive"
  },
  {
    "compound": "NCCOCCOCCN",
    "readout.kind": "activity change, negative = cytotoxicity",
    "reported": "inactive"
  },
  {
    "compound": "C=Cc1ccc(C=C)cc1",
    "readout.kind": "activity change, negative = cytotoxicity",
    "reported": "inactive"
  },
  {
    "compound": "CC(C(=O)O)c1ccc(/C=C2\\CCCCC2=O)cc1 (configuration not stated)",
    "readout.kind": "activity change, negative = cytotoxicity",
    "reported": "inactive"
  },
  {
    "compound": "CCC(C)C1N=C(C)C(C)S1 (configuration not stated)",
    "readout.kind": "activity change, negative = cytotoxicity",
    "reported": "inactive"
  },
  {
    "compound": "O=C(OCCOCCOCCOC(=O)c1ccccc1)c1ccccc1",
    "readout.kind": "activity change, negative = cytotoxicity",
    "reported": "inactive"
  }
]

----------
protocol.summary: qHTS RealTime-Glo MT Cell Viability Assay in HepG2 cells - 0 hour (AID 1224889); further: on the % scale 0 is the no-effect control and ±100 the full control effect; nearly all actives have a fitted effect of over 50% in size
test.settings: RealTime-Glo luminescence; series mostly up to 76.8 µM
Description: U.S. Tox21 Program National Center for Advancing Translational Sciences [NCATS] NIH Chemical Genomics Center [NCGC] U.S. Environmental Protection Agency [EPA] National Institutes of Environmental Health Sciences [NIEHS] National Toxicology Program [NTP] U.S. Food and Drug Administration [FDA] Tox21 Assay Overview: Measure of cell viability is critical in the cell-base assay. Analysis of cell viability is necessary for the characterization of cell responses to cytotoxic drugs and environmental stress. […]
Records with an inconclusive call do not appear. Calls of active or inactive are those of the source. Calls follow the shape of the dose curve; as a rule, active = well fitted cell-killing curve with a large enough effect in the repeat runs; inconclusive = weak or mixed curves, or effect the other way; inactive = flat fitted curve, though single readings scatter.

[
  {
    "compound": "C1=COCCC1",
    "activity change, negative = cytotoxicity": "inactive"
  },
  {
    "compound": "COc1cc(CNC(=O)CCCC/C=C/C(C)C)ccc1O",
    "activity change, negative = cytotoxicity": "inactive"
  },
  {
    "compound": "O=C(C1CCCCC1)N1CC(=O)N2CCCc3ccccc3C2C1 (configuration not stated)",
    "activity change, negative = cytotoxicity": "inactive"
  },
  {
    "compound": "CCCc1ccc(OC)cc1",
    "activity change, negative = cytotoxicity": "inactive"
  },
  {
    "compound": "OCC(O)c1ccccc1 (configuration not stated)",
    "activity change, negative = cytotoxicity": "inactive"
  },
  {
    "compound": "C=CC(=O)OCCCCCCCCCC",
    "activity change, negative = cytotoxicity": "inactive"
  },
  {
    "compound": "CC/C=C/CCO",
    "activity change, negative = cytotoxicity": "inactive"
  },
  {
    "compound": "O=C(O)COCC(=O)O",
    "activity change, negative = cytotoxicity": "inactive"
  },
  {
    "compound": "Cc1ccc(NC=O)c(C)c1",
    "activity change, negative = cytotoxicity": "inactive"
  },
  {
    "compound": "CC[C@H](NC(C)C)[C@H](O)c1ccc(O)c2[nH]c(=O)ccc12",
    "activity change, negative = cytotoxicity": "inactive"
  },
  {
    "compound": "N#C[C@@H]1CC(F)(F)CN1C(=O)CNC1CC2CCC(C1)N2c1ncccn1 (some centres not stated)",
    "activity change, negative = cytotoxicity": "inactive"
  },
  {
    "compound": "CCC1=C(C)CN(C(=O)NCCc2ccc(S(=O)(=O)NC(=O)NC3CCC(C)CC3)cc2)C1=O (configuration not stated)",
    "activity change, negative = cytotoxicity": "inactive"
  },
  {
    "compound": "CCCCCCCCCCCCCCCCC(=O)O",
    "activity change, negative = cytotoxicity": "inactive"
  },
  {
    "compound": "COc1ccc(C(=O)c2ccc(C)cc2)c(O)c1",
    "activity change, negative = cytotoxicity": "inactive"
  },
  {
    "compound": "[O-][n+]1ccc(Cl)cc1",
    "activity change, negative = cytotoxicity": "inactive"
  },
  {
    "compound": "COc1ccc(C(=O)Nc2ccccc2)cc1[N+](=O)[O-]",
    "activity change, negative = cytotoxicity": "inactive"
  },
  {
    "compound": "O=C(OCCN1CCOCC1)c1cccnc1Nc1cccc(C(F)(F)F)c1",
    "activity change, negative = cytotoxicity": "inactive"
  },
  {
    "compound": "CC(C)Cc1nccs1",
    "activity change, negative = cytotoxicity": "inactive"
  },
  {
    "compound": "CC(C)=CCCC(C)C=O (configuration not stated)",
    "activity change, negative = cytotoxicity": "inactive"
  },
  {
    "compound": "COC(=O)Cc1cccc2ccccc12",
    "activity change, negative = cytotoxicity": "inactive"
  },
  {
    "compound": "CC1=CC(=C(c2ccc(N)cc2)c2ccc(N)cc2)C=CC1=N",
    "activity change, negative = cytotoxicity": "9.14% [at 6.97 µM] (inactive)"
  },
  {
    "compound": "CC(=O)Nc1ccccc1O",
    "activity change, negative = cytotoxicity": "inactive"
  },
  {
    "compound": "SCCOCCOCCS",
    "activity change, negative = cytotoxicity": "inactive"
  },
  {
    "compound": "CCc1c(C)[nH]c2c1C(=O)C(CN1CCOCC1)CC2 (configuration not stated)",
    "activity change, negative = cytotoxicity": "inactive"
  },
  {
    "compound": "O=C(NC1CCN(CCc2c[nH]c3ccccc23)CC1)c1ccccc1",
    "activity change, negative = cytotoxicity": "inactive"
  },
  {
    "compound": "O=[N+]([O-])c1cccc(I)c1",
    "activity change, negative = cytotoxicity": "inactive"
  },
  {
    "compound": "CC(C)C[C@H](NC(=O)[C@H](Cc1ccccc1)NC(=O)c1cnccn1)B(O)O",
    "activity change, negative = cytotoxicity": "inactive"
  },
  {
    "compound": "Cc1ccc2ccccc2c1[N+](=O)[O-]",
    "activity change, negative = cytotoxicity": "inactive"
  },
  {
    "compound": "COc1cc(C)c(Cc2cnc(N)nc2N)cc1OC",
    "activity change, negative = cytotoxicity": "inactive"
  },
  {
    "compound": "C=C(C)C(=O)OCCCCCCCCCCOC(=O)C(=C)C",
    "activity change, negative = cytotoxicity": "inactive"
  },
  {
    "compound": "O=P(c1ccccc1)(c1ccccc1)c1ccccc1",
    "activity change, negative = cytotoxicity": "inactive"
  },
  {
    "compound": "CC(=O)S[C@H](C(=O)N[C@H]1Cc2ccccc2[C@H]2CCC[C@@H](C(=O)O)N2C1=O)C(C)C",
    "activity change, negative = cytotoxicity": "inactive"
  },
  {
    "compound": "OCCCO",
    "activity change, negative = cytotoxicity": "inactive"
  },
  {
    "compound": "CCOC(OCC)OCC",
    "activity change, negative = cytotoxicity": "inactive"
  },
  {
    "compound": "OCCc1ccncc1",
    "activity change, negative = cytotoxicity": "inactive"
  },
  {
    "compound": "COc1cccc([C@H](O)C2CCN(CCc3ccc(F)cc3)CC2)c1OC",
    "activity change, negative = cytotoxicity": "inactive"
  },
  {
    "compound": "C[C@@H](O)[C@H]1C(=O)N2C(C(=O)O)=C(S[C@@H]3CN[C@H](CNS(N)(=O)=O)C3)[C@H](C)[C@H]12",
    "activity change, negative = cytotoxicity": "inactive"
  },
  {
    "compound": "O=C(O)c1cc(C(=O)O)cc([N+](=O)[O-])c1",
    "activity change, negative = cytotoxicity": "inactive"
  },
  {
    "compound": "CCCC(=O)OCCC(C)C",
    "activity change, negative = cytotoxicity": "inactive"
  },
  {
    "compound": "C/C(=C(\\CCO)SS/C(CCO)=C(\\C)N(C=O)Cc1cnc(C)nc1N)N(C=O)Cc1cnc(C)nc1N",
    "activity change, negative = cytotoxicity": "inactive"
  },
  {
    "compound": "CO[C@@H]1[C@@H](O[C@@H]2O[C@H](C)[C@@H](O[C@H]3C[C@@](C)(O)[C@@H](O)[C@H](C)O3)[C@H](N(C)C)[C@H]2O)[C@@H](CC=O)C[C@@H](C)[C@@H](O[C@@H]2CC[C@H](N(C)C)[C@@H](C)O2)/C=C/C=C/C[C@@H](C)OC(=O)C[C@H]1OC(C)=O",
    "activity change, negative = cytotoxicity": "inactive"
  },
  {
    "compound": "Cc1ccccc1CCO",
    "activity change, negative = cytotoxicity": "inactive"
  },
  {
    "compound": "Nc1ccccc1Nc1ccccc1",
    "activity change, negative = cytotoxicity": "inactive"
  },
  {
    "compound": "C/C=C1\\[C@H]2C=C(C)C[C@]1(N)c1ccc(=O)[nH]c1C2",
    "activity change, negative = cytotoxicity": "inactive"
  },
  {
    "compound": "Nc1ncnc2c1ncn2[C@@H]1O[C@H](CO)[C@@H](O)[C@H]1O",
    "activity change, negative = cytotoxicity": "inactive"
  },
  {
    "compound": "C=C[Si](OCC)(OCC)OCC",
    "activity change, negative = cytotoxicity": "inactive"
  },
  {
    "compound": "COC(=O)C(C)(C)C",
    "activity change, negative = cytotoxicity": "inactive"
  },
  {
    "compound": "CC(=O)Oc1cccc2c1C(=O)c1c(OC(C)=O)cc(C(=O)O)cc1C2=O",
    "activity change, negative = cytotoxicity": "inactive"
  },
  {
    "compound": "CCCCCCCCC(=O)OCC(C)OC(=O)CCCCCCCC (configuration not stated)",
    "activity change, negative = cytotoxicity": "inactive"
  },
  {
    "compound": "CCCCCCOC(=O)c1ccccc1",
    "activity change, negative = cytotoxicity": "inactive"
  },
  {
    "compound": "CCCCCCCCNC",
    "activity change, negative = cytotoxicity": "inactive"
  },
  {
    "compound": "N#Cc1ccc(CC(=O)c2cccc(C(F)(F)F)c2)cc1",
    "activity change, negative = cytotoxicity": "inactive"
  }
]
